# Tested on: HeLa Kyoto H2B-mCherry eGFP-α-tubulin cells
# PROCEDURE TEXT: Cell growth assay (cell number, cytokinesis)
# MEASUREMENT SETUP: read-out: IC50 of the inhibition of cell proliferation; cell number at day 3
READOUT: IC50

Qu. Look at this compound and give its reported IC50. Cc1ccc2c(c1)C(=O)[C@]1(O)CCN(c3ccc([N+](=O)[O-])cc3)C1=N2
Ans. 14.7 µM

* * *

Listing: pIC50 of selected compounds
# ASSAY TARGET: rabbit skeletal muscle myosin S1 (SkS1) (Oryctolagus cuniculus)
# Construct: SkS1 (rabbit skeletal S1 fragment); from tissue; host or cells: rabbit skeletal muscle
# Sequence (Q28641 1-844 limits assumed): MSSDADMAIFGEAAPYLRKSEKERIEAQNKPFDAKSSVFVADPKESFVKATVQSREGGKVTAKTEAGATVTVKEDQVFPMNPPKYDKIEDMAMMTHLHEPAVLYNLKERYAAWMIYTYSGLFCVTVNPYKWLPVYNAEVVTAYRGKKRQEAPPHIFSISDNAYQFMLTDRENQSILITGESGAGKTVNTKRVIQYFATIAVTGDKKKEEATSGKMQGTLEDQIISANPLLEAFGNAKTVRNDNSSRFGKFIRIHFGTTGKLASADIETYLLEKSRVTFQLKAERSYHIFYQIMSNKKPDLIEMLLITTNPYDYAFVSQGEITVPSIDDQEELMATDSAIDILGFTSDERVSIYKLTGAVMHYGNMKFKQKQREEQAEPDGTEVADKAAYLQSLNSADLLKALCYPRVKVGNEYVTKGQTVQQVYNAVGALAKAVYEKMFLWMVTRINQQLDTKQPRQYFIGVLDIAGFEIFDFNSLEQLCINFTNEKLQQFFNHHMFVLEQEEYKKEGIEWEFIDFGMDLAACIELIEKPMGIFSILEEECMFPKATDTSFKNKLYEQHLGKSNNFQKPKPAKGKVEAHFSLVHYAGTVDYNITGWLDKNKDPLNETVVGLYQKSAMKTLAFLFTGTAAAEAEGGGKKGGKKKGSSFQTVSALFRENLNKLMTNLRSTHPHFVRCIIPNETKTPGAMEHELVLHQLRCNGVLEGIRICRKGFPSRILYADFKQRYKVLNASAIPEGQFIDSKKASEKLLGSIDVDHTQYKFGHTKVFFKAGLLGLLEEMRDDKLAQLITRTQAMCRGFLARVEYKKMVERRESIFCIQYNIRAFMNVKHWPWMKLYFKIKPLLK
# Sequence (P02602 whole entry partner, the tested form may be a part): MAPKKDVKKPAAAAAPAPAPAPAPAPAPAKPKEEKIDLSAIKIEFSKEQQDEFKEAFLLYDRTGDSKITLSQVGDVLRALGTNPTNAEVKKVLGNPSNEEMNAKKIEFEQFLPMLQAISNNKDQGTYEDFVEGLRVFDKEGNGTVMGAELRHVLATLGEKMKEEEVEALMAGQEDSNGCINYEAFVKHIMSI
# PROCEDURE TEXT: Steady state actin activated ATPase, SkS1
# Assay type: biochemical
# MEASUREMENT SETUP: 45 μM actin, 25 °C
// pIC50: -log10(molar conc.)

Qu. Look at this compound and give its reported pIC50. Cc1ccc2c(c1)C(=O)[C@]1(O)CCN(c3ccc([N+](=O)[O-])cc3)C1=N2
Ans. 7.00

Qu. One more compound: Cc1ccc2c(c1)C(=O)[C@]1(O)CCN(c3ccc(N)cc3)C1=N2
Ans. 6.33

Qu. One more compound: Cc1ccc2c(c1)C(=O)C1(O)CCN(c3ccccc3)C1=N2 (stereo not drawn)
Ans. 6.96

* * *

# PROCEDURE TEXT: physchem
# MEASUREMENT SETUP: Solubility in aqueous buffer
READOUT: Solubility
Give me the value, and tack the unit on after it.

Qu. Look at this molecule and give its reported Solubility. Cc1ccc2c(c1)C(=O)[C@]1(O)CCN(c3ccc(N)cc3)C1=N2 [para-aminoblebbistatin]
Ans. 440 µM

The values you see were collected from paper PMC4886532.
